assay: Growth inhibition, sulforhodamine B (SRB) assay, A2780; assay type: cell-based; settings: human, A2780 ovarian carcinoma cells, 96 hr incubation, read-out: Cytotoxicity IC50 A2780
Label met when IC50 at 96 h is strictly below 600 nM; otherwise label not met.

{"compound": "CN1c2ccccc2-c2c3c1cccc3c1ccccc1[n+]2C [RHPS05]", "class-name": "not met"}
{"compound": "CN1c2cc(Cl)ccc2-c2c3c1cccc3c1cc(Cl)ccc1[n+]2C [RHPS07]", "class-name": "not met"}
{"compound": "Cc1ccc2c(c1)-c1c3c(cc(C)cc3c3cc(C)ccc3[n+]1C)N2C [RHPS03]", "class-name": "met"}
{"compound": "Cc1cc2c3c([n+](C)c4ccccc4c3c1)-c1ccccc1N2C [RHPS01]", "class-name": "not met"}
{"compound": "COc1cc2c3c([n+](C)c4ccccc4c3c1)-c1ccccc1N2C [RHPS08]", "class-name": "not met"}

----------
experiment: Growth inhibition, sulforhodamine B (SRB) assay, A431; assay type: cell-based; settings: human, A431 vulval carcinoma cells (short telomeres), 96 hr incubation, read-out: Cytotoxicity IC50 A431

{"compound": "COC(=O)/C=C/c1ccc2c(c1)c1cccc3c1c([n+]2C)-c1ccccc1N3C [RHPS15]", "IC50 at 96 h [nM]": 3200}
{"compound": "COc1cc2c3c([n+](C)c4ccc(Cl)cc4c3c1)-c1ccccc1N2C [RHPS10]", "IC50 at 96 h [nM]": 3200}
{"compound": "COC(=O)Oc1cc2c3c([n+](C)c4ccccc4c3c1)-c1ccccc1N2C [RHPS13]", "IC50 at 96 h [nM]": 400}
{"compound": "CC(=O)Oc1cc2c3c([n+](C)c4ccccc4c3c1)-c1ccccc1N2C [RHPS11]", "IC50 at 96 h [nM]": 1700}
{"compound": "CN1c2ccccc2-c2c3c1cccc3c1cc(/C=C/C(=O)N3CCOCC3)ccc1[n+]2C [RHPS16]", "IC50 at 96 h [nM]": 12500}
{"compound": "COc1cc2c3c([n+](C)c4ccccc4c3c1)-c1ccc(Cl)cc1N2C [RHPS12]", "IC50 at 96 h [nM]": 1000}

----------
Structures can show the parent of a compound that is named as a salt.
measured-metric: melting point

{"compound": "Cc1cc2c3c([n+](C)c4ccccc4c3c1)-c1ccccc1N2C (as salt: sulphate) [RHPS01]", "result": "190 to 192 °C"}
{"compound": "Cc1cc2c3c([n+](C)c4ccc(Cl)cc4c3c1)-c1cc(Cl)ccc1N2C (as salt: sulfate) [RHPS02]", "result": "250 to 252 °C"}
{"compound": "CN1c2ccccc2-c2c3c1cccc3c1cc(Cl)ccc1[n+]2C (as salt: iodide) [RHPS06]", "result": "225 to 227 °C"}
{"compound": "COC(=O)/C=C/c1ccc2c(c1)c1cccc3c1c([n+]2C)-c1ccccc1N3C (as salt: iodide) [RHPS15]", "result": "200 to 202 °C"}
{"compound": "Cc1ccc2c(c1)-c1c3c(cc(C)cc3c3cc(C)ccc3[n+]1C)N2C (as salt: sulphate) [RHPS03]", "result": "240 to 242 °C"}

----------
biological target: telomerase (extracts from A2780 human ovarian carcinoma cells) (Homo sapiens, UniProt O14746)
Sequence (O14746 whole entry): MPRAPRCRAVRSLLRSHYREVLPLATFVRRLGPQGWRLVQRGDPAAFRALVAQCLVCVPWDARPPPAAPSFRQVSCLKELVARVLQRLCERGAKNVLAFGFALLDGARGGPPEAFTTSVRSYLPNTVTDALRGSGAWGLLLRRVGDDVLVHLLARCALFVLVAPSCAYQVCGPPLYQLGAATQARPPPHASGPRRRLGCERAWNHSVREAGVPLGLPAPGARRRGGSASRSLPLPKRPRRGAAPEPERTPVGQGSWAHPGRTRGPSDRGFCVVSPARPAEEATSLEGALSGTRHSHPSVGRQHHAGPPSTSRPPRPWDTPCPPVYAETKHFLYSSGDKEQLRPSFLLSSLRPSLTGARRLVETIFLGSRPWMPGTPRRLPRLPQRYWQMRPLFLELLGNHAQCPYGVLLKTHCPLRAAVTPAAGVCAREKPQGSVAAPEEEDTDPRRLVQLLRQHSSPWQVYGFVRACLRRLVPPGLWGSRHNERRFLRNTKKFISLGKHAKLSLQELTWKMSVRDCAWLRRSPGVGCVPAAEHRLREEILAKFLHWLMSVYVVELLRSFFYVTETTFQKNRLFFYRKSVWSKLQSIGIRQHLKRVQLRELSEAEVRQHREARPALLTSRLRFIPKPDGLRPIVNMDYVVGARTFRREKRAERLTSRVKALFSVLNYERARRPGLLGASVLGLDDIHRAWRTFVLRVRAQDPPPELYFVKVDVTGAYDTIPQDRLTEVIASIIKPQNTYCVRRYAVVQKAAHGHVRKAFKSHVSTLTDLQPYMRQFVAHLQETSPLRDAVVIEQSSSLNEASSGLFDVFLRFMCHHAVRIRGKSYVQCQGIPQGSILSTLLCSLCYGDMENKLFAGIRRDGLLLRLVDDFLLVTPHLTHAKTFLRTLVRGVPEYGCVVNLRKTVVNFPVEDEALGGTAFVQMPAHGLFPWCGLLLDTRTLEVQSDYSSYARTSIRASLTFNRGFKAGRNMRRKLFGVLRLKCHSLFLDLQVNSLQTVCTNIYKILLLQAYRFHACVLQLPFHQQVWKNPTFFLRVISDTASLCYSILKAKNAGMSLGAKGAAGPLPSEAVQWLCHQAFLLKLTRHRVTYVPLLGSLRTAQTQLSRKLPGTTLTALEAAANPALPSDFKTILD
Label satisfied when IC50 is strictly below 500 nM; otherwise label not satisfied.

{"chem-smiles": "COc1cc2c3c([n+](C)c4ccccc4c3c1)-c1ccccc1N2C", "class-name": "satisfied"}
{"chem-smiles": "COC(=O)Oc1cc2c3c([n+](C)c4ccccc4c3c1)-c1ccccc1N2C", "class-name": "not satisfied"}
{"chem-smiles": "COC(=O)/C=C/c1ccc2c(c1)c1cccc3c1c([n+]2C)-c1ccccc1N3C", "class-name": "satisfied"}
{"chem-smiles": "CN1c2ccccc2-c2c3c1cccc3c1cc(Cl)ccc1[n+]2C", "class-name": "satisfied"}
{"chem-smiles": "CN1c2cc(Cl)ccc2-c2c3c1cccc3c1cc(Cl)ccc1[n+]2C", "class-name": "not satisfied"}
